# Assay method text: in vitro
# Protocol conditions: PAMPA, PAMPA_Papp_Avg
Where a SMILES comes first, the peptide text is derived from it. [ ]: non-standard residue; d: D form. dNMeI = CC[C@@H](C)[C@@H](NC)C(=O)O; NMeF = CN[C@@H](Cc1ccccc1)C(=O)O; dNMeL = CN[C@H](CC(C)C)C(=O)O; NMeA = CN[C@@H](C)C(=O)O
Readout type: Papp (×10⁻⁶ cm/s)

>  <Compound>
CC[C@@H](C)[C@H]1NC(=O)[C@H]([C@@H](C)CC)NC(=O)[C@H](Cc2ccccc2)N(C)C(=O)[C@H]2CCCN2C(=O)[C@@H]([C@H](C)CC)NC(=O)[C@@H]([C@H](C)CC)N(C)C(=O)[C@H](CC(C)C)NC(=O)[C@H]2CCCN2C(=O)[C@@H]2CCCN2C(=O)[C@H](C(C)C)NC(=O)[C@H]2CCCN2C1=O [Design D11.4] (cyclo(I[dI][dP]VP[dP]L[dNMeI][dI][dP][NMeF]))

>  <U>
×10⁻⁶ cm/s

>  <Observed>
1.47

$$$$
>  <Compound>
CC[C@@H](C)[C@H]1NC(=O)[C@@H]2CCCN2C(=O)[C@@H](CC(C)C)N(C)C(=O)[C@@H](C(C)C)NC(=O)[C@@H]2CCCN2C(=O)[C@@H](CC(C)C)N(C)C(=O)[C@H](C)N(C)C(=O)[C@@H](C)NC1=O [Design D8.18, DILE DALA *ALA *DLEU PRO DVAL *DLEU PRO] (cyclo([NMeA][dNMeL]P[dV][dNMeL]P[dI][dA]))

>  <U>
×10⁻⁶ cm/s

>  <Observed>
1.04

$$$$

====

# Assay method text: Pharmacokinetics and oral bioavailability of D11.2 in male SD rats (IV, PO, SQ)
# Format: in vivo
# Protocol conditions: male, Sprague Dawley, rat, plasma, po, 1 mg/kg, PO 1 mg/kg, individual rats R4, R5, R6
Where a SMILES comes first, the peptide text is derived from it. [ ]: non-standard residue; d: D form. NMeL = CN[C@@H](CC(C)C)C(=O)O; Sar = CNCC(=O)O

>  <Compound>
CC[C@@H](C)[C@H]1NC(=O)[C@@H]2CCCN2C(=O)[C@@H]([C@H](C)CC)NC(=O)CN(C)C(=O)[C@H](CC(C)C)NC(=O)[C@@H](Cc2ccccc2)NC(=O)[C@H](CC(C)C)N(C)C(=O)[C@H]2CCCN2C(=O)[C@@H](CC(C)C)NC(=O)[C@H](CC(C)C)NC(=O)[C@H]2CCCN2C1=O [Design D11.2] (cyclo(L[Sar][dI]P[dI][dP]L[dL][dP][NMeL][dF]))

>  <AUC(0-t) / ng·h/mL>
66.8

$$$$

====

# Protocol conditions: PAMPA
Where a SMILES comes first, the peptide text is derived from it. [ ]: non-standard residue; d: D form. NMeF = CN[C@@H](Cc1ccccc1)C(=O)O; dNMeF = CN[C@H](Cc1ccccc1)C(=O)O; NMeL = CN[C@@H](CC(C)C)C(=O)O; NMeA = CN[C@@H](C)C(=O)O; Nle = CCCC[C@H](N)C(=O)O; dNMeA = CN[C@H](C)C(=O)O

>  <Compound>
CC[C@H](C)[C@@H]1NC(=O)[C@@H]2CCCN2C(=O)[C@H](C)NC(=O)[C@@H](Cc2ccccc2)N(C)C(=O)[C@H](C)NC(=O)[C@@H]2CCCN2C(=O)[C@@H](Cc2ccccc2)N(C)C(=O)[C@H](Cc2ccccc2)N(C)C(=O)[C@H](CC(C)C)N(C)C(=O)[C@@H](C(C)C)NC1=O [Design D10.52] (cyclo(API[dV][NMeL][NMeF][dNMeF]PA[dNMeF]))

>  <PAMPA_Papp_Avg>
BQL

$$$$
>  <Compound>
CCCC[C@@H]1NC(=O)[C@H]2CCCN2C(=O)[C@@H]2CCCN2C(=O)[C@@H](C)NC(=O)[C@H]2CCCN2C(=O)[C@@H](C(C)C)NC(=O)[C@H](C(C)C)NC(=O)[C@@H](Cc2ccccc2)N(C)C(=O)[C@H](C)N(C)C1=O [Design D9.31] (cyclo([NMeA][dNMeF]V[dV][dP][dA]P[dP][Nle]))

>  <PAMPA_Papp_Avg>
6.86E-08

$$$$
>  <Compound>
CC[C@H](C)[C@@H]1NC(=O)[C@@H](C)N(C)C(=O)[C@@H](C)N(C)C(=O)[C@H](C(C)C)NC(=O)[C@H]2CCCN2C(=O)[C@@H]2CCCN2C(=O)[C@H](C(C)C)NC(=O)[C@H]2CCCN2C(=O)[C@@H]2CCCN2C1=O [Design D9.12] (cyclo(IP[dP]VP[dP]V[dNMeA][dNMeA]))

>  <PAMPA_Papp_Avg>
BQL

$$$$
